Catalogue of viability at 10 µM values
system: expanded OPCs; experiment: cells; settings: Rattus norvegicus, 72 h, read-out: 10 µM (% DMSO), alamarBlue viability of expanded OPCs, compound at 10 µM, sheet All Tox data
API: value field is a number in %; no unit string.

Here are 4 compounds together with their reported answers.
| Compound | Unit abbrev | viability at 10 µM |
| --- | --- | --- |
| O=c1[nH]cnc2c1ncn2[C@H]1CC[C@@H](CO)O1 | % | 86.2 |
| NC1=NC(=O)C(c2ccccc2)O1 (centres unmarked) | % | 101 |
| CC(C)[C@H]1CC[C@H](C(=O)N[C@H](Cc2ccccc2)C(=O)O)CC1 [Nateglinide] | % | 99.5 |
| CCN1CCCC1CNC(=O)c1cc(S(=O)(=O)CC)ccc1OC (centres unmarked) [Sultopride] | % | 96.2 |

COc1ccccc1N1CCN(CCCNc2cc(=O)n(C)c(=O)n2C)CC1 yielded viability at 10 µM of 96.2

----------
system: expanded OPCs; experiment: cells; conditions: Rattus norvegicus, 72 h, read-out: 10 µM (% DMSO), alamarBlue viability, NCC library compound at 10 µM, sheet "All Tox data"
Each entry below carries its reported viability at 10 µM.
Return type: number; implicit unit %.

Noted for CC(C)NCC(O)COc1ccc(CCOCC2CC2)cc1 (centres unmarked) [Betaxolol, reference compound] : its viability at 10 µM reads 104

The recorded viability at 10 µM for entry C=C1C[C@@H]2[C@H](CC[C@]3(C)C(=O)CC[C@@H]23)[C@@]2(C)C=CC(=O)C=C12 equals 102

----------
system: expanded OPCs; assay: cells; conditions: Rattus norvegicus, 72 h, read-out: 10 µM (% DMSO), alamarBlue viability, NCC library compound at 10 µM, sheet "All Tox data"
Readings of viability at 10 µM for the listed molecules
Enter your answer as a number in %; do not include the unit.

Reference set, count: 3
| Molecule | Measured value |
| --- | --- |
| COc1ccc2[nH]cc(C3=CCNCC3)c2c1 [RU-24969] | 36.7 |
| c1ccc2c(c1)Nc1ccccc1S2 [Phenothiazine] | 51.9 |
| CNC1=Nc2ccc(Cl)cc2C(c2ccccc2)=[N+]([O-])C1 [Chlordiazepoxide] | 90.6 |

Entry C[C@@H]1C[C@H]2[C@@H]3CCC4=CC(=O)C=C[C@]4(C)[C@@]3(F)[C@@H](O)C[C@]2(C)[C@H]1C(=O)CO [Desoximetasone] — recorded viability at 10 µM = 111

Briefly, viability at 10 µM measured for O=C(O)C(Cl)Cl [Dichloroacetic Acid] : 83.5

----------
Test system: expanded OPCs
Experiment: cells
Details: alamarBlue viability of expanded OPCs, compound at 0.1 µM, relative to DMSO control
Description: Having established a consistent assay for measuring OL differentiation in vitro, the next step was to utilize this assay to assess the ability of a wide array of compounds to promote OL differentiation. Prior to library screening, we first established the maximum non-toxic dose of each compound in the library. […] Three days later, we assessed viability of the treated cells by measuring AlamarBlue fluorescence, a measure of cell viability (see “Methods” section). […]
Measurement label: 0.1 µM (% DMSO)
The reply should contain only the number, in % DMSO.

In the examples that follow, each entry is paired with its recorded 0.1 µM (% DMSO).
| Compound | 0.1 µM (% DMSO) |
| --- | --- |
| C[C@]12C=CC(=O)C=C1CC[C@@H]1[C@@H]2C(=O)C[C@@]2(C)[C@H]1CC[C@]2(O)C(=O)CO [Prednisone] | 88.8 |
| CC1=C(/C=C/C(C)=C/C=C/C(C)=C/C(=O)O)C(C)(C)CCC1 [Retinoic Acid] | 144.5 |

Sample Oc1c(Cl)cc(Cl)c(Cl)c1Cc1c(O)c(Cl)cc(Cl)c1Cl [Hexachlorophene] ; 0.1 µM (% DMSO) observed: 115.4

----------
system: expanded OPCs; assay: cells; conditions: Rattus norvegicus, 72 h, read-out: 10 µM (% DMSO), alamarBlue viability of expanded OPCs, compound at 10 µM, sheet All Tox data
For each record, check the reported viability at 10 µM: if it is below 90% write YES, else write NO.

Please review the following examples before continuing.
| Compound | Class label |
| --- | --- |
| CCCCCCNC(=O)n1cc(F)c(=O)[nH]c1=O [Carmofur] | YES |
| CC(=O)SCC(Cc1ccccc1)C(=O)NCC(=O)OCc1ccccc1 (stereo not drawn) [Racecadotril] | YES |
| CC[C@@]1(O)C(=O)OCc2c1cc1n(c2=O)Cc2cc3c(CN(C)C)c(O)ccc3nc2-1 [Topotecan] | YES |
| Cc1ncc([N+](=O)[O-])n1CC(C)O (stereo not drawn) [Secnidazole] | NO |
| CC(C)NCC(O)c1ccc(NS(C)(=O)=O)cc1 (stereo not drawn) [Sotalol] | NO |
| C[C@]12CCC(=O)C=C1CC[C@@H]1[C@@H]2CC[C@@]2(C)[C@H]1CC[C@]2(C)O [Methyltestosterone] | NO |
| CC(=O)O[C@@]12CO[C@@H]1C[C@H](O)[C@@]1(C)C(=O)[C@H](O)C3=C(C)[C@@H](OC(=O)[C@H](O)[C@@H](NC(=O)OC(C)(C)C)c4ccccc4)C[C@@](O)([C@@H](OC(=O)c4ccccc4)[C@H]21)C3(C)C [Docetaxel] | YES |
| c1cnc(N2CCN(Cc3ccc4c(c3)OCO4)CC2)nc1 [Piribedil] | NO |

Lookup: Here's an entry: CCc1nn(CCCN2CCN(c3cccc(Cl)c3)CC2)c(=O)n1CCOc1ccccc1 [Nefazodone] . Is its viability at 10 µM below 90%?
Found: YES

Lookup: Does CCOC(=O)[C@H](CCc1ccccc1)N[C@@H](C)C(=O)N1[C@H](C(=O)O)C[C@@H]2CCC[C@@H]21 [Ramipril] have viability at 10 µM strictly under 90%?
Found: NO

Lookup: Strictly below 90%: is that where viability at 10 µM of COc1cc2nc(N(C)CCCNC(=O)C3CCCO3)nc(N)c2cc1OC (stereo not drawn) [Alfuzosin] sits?
Found: YES

----------
# viability at 1 µM listing for each entry below
test system: expanded OPCs; test: cells; details: Rattus norvegicus, 72 h, read-out: 1 µM (% DMSO), alamarBlue viability of expanded OPCs, compound at 1 µM, sheet All Tox data
The response must be a number in % with no trailing unit.

Observe how each entry below is paired with its result.
| Compound | Measurement target | viability at 1 µM, % |
| --- | --- | --- |
| CC(C)c1nc(CN(C)C(=O)N[C@H](C(=O)N[C@@H](Cc2ccccc2)C[C@H](O)[C@H](Cc2ccccc2)NC(=O)OCc2cncs2)C(C)C)cs1 | expanded OPCs | 97.4 |
| NC(=O)C[S+]([O-])C(c1ccccc1)c1ccccc1 (centres unmarked) | expanded OPCs | 94.6 |
| NNCCc1ccccc1 | expanded OPCs | 80.2 |
| O=C1CN=C(c2ccccc2)c2cc([N+](=O)[O-])ccc2N1 | expanded OPCs | 88.9 |
| Nc1[nH]c(=O)ncc1F | expanded OPCs | 90.7 |

For record CC(C)(C)NC(=O)[C@@H]1CN(Cc2cccnc2)CCN1C[C@@H](O)C[C@@H](Cc1ccccc1)C(=O)N[C@H]1c2ccccc2C[C@H]1O the listed viability at 1 µM is 91.7

# compound OC[C@H]1O[C@@H](Oc2cc(O)cc(/C=C/c3ccc(O)cc3)c2)[C@H](O)[C@@H](O)[C@@H]1O ; its viability at 1 µM = 110

compound CSc1nc2cc(Cl)c(Oc3cccc(Cl)c3Cl)cc2[nH]1 , viability at 1 µM observed: 131

----------
system: acutely dissociated and purified rat OPCs; test: Acute OL differentiation assay (MBP expression/cell, immunofluorescent image quantification); type: cell-based; settings: Rattus norvegicus, test compound at 2 uM; MBP expression relative to quetiapine; NCC library screen, sheet "All OLga data"; read-out: 2 uM (% Quet)
Measurement label: activation at 2 µM (%)
Please give a number only; it is taken to be in %.

| Compound | Unit abbrev | activation at 2 µM |
| --- | --- | --- |
| CCOC(=O)[C@H](CCc1ccccc1)N[C@@H](C)C(=O)N1CCC[C@H]1C(=O)O | % | 8.8 |
| Nc1nc(O)c2ncn(COC(CO)CO)c2n1 | % | 3.8 |
| NC(=O)N1c2ccccc2C=Cc2ccccc21 [Carbamazepine] | % | -5.2 |
| Cc1ccc(-c2cc(C(F)(F)F)nn2-c2ccc(S(N)(=O)=O)cc2)cc1 | % | 14.8 |

Please find the next compound below.
Tested on acutely dissociated and purified rat OPCs, the item NS(=O)(=O)c1cc(C2(O)NC(=O)c3ccccc32)ccc1Cl (centres unmarked) showed activation at 2 µM equal to -5.8
